Target Desc: human CB2 receptor (Homo sapiens (Human), UniProt P34972)
Sequence (P34972 whole entry): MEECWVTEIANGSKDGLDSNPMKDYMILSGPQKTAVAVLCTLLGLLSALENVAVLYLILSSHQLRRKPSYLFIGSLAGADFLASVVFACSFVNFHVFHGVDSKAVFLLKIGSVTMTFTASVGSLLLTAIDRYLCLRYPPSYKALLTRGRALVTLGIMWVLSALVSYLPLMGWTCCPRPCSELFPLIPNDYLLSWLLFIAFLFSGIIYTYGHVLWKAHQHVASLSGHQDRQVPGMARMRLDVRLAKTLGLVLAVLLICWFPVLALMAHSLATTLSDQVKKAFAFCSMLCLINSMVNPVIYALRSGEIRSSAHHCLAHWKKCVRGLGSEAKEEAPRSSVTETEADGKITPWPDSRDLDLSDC
Test Name: CB2 receptor binding assay ([3H]CP-55,940 displacement, HEK-293 membranes)
Assay Setup: membranes of HEK-293 cells with human recombinant CB2R, [3H]CP-55,940; class symbols; read-out: CB2 IC50
Quick reference: IC50 of the listed items.
Measurement Type: IC50

compound=O=C(NC1CC2(CCC2)C1)c1cc2cc(-c3ccc(F)cc3)cnc2n(Cc2ccccn2)c1=O measurement_type=IC50 result="< 100 nM"
compound=COc1ccc(-c2ccc3c(c2)c(O)c(C(=O)N[C@H]2CC[C@@H](C)CC2)c(=O)n3CCN2CCOCC2)cc1 measurement_type=IC50 result="< 100 nM"
compound=O=C(NC1CC2(CCC2)C1)c1c(O)c2cc(-c3ccccc3)cnc2n(CCN2CCOCC2)c1=O measurement_type=IC50 result="< 100 nM"
compound="CC1CCC(NC(=O)c2c(O)c3cc(-c4ccc(OC(C)C)cc4)cnc3n(CCN3CCOCC3)c2=O)CC1 (stereo not shown)" measurement_type=IC50 result="> 1000 nM"
compound=O=C(NC1CC2(CCC2)C1)c1c(O)c2cc(-c3ccc(F)cc3)ccc2n(CCN2CCOCC2)c1=O measurement_type=IC50 result="< 100 nM"
compound=COc1ccc(-c2cnc3c(c2)c(O)c(C(=O)N[C@H]2CC[C@H](C)CC2)c(=O)n3CCN2CCOCC2)cc1 measurement_type=IC50 result="> 1000 nM"
compound=COc1ccc(-c2cnc3c(c2)c(O)c(C(=O)N[C@@H](C)c2ccc(F)cc2)c(=O)n3CCN2CCOCC2)cc1 measurement_type=IC50 result="> 1000 nM"
compound="CC(NC(=O)c1cc2cc(-c3ccc(C#N)cn3)cnc2n(CC(C)(C)N2CCOCC2)c1=O)c1ccc(F)cc1 (stereo not shown)" measurement_type=IC50 result="< 100 nM"
compound=O=C(NC1(CO)CCCCC1)c1c(O)c2cccnc2n(Cc2ccc(F)cc2)c1=O measurement_type=IC50 result="< 100 nM"
compound=COc1ccc(-c2cnc3c(c2)c(OC)c(C(=O)NC24CC(C2)C4)c(=O)n3CCN2CCOCC2)cc1 measurement_type=IC50 result="> 1000 nM"
compound=O=C(Nc1ccccn1)c1cc2cc(Br)cnc2n(Cc2ccc(F)cc2)c1=O measurement_type=IC50 result="< 100 nM"
compound=O=C(NC1CCCCC1)c1c(O)c2cc(-c3ccc(F)cc3)cnc2n(CCN2CCOCC2)c1=O measurement_type=IC50 result="< 100 nM"
compound=C[C@H]1CC[C@@H](NC(=O)c2c(O)c3cc(-c4ccc(F)cc4)cnc3n(CCN3CCOCC3)c2=O)CC1 measurement_type=IC50 result="< 100 nM"
compound=C[C@H]1C[C@@H](NC(=O)c2c(O)c3cc(-c4ccc(F)cc4)cnc3n(CCN3CCOCC3)c2=O)C1 measurement_type=IC50 result="> 1000 nM"
compound=O=C(NC12CC(C1)C2)c1c(O)c2nccnc2n(Cc2ccc(F)cc2)c1=O measurement_type=IC50 result="> 1000 nM"
compound=O=C(NC1CC2(CCC2)C1)c1cc2cc(Br)cnc2n(Cc2cccnc2)c1=O measurement_type=IC50 result="< 100 nM"
compound=O=C(NC12CC(C1)C2)c1c(O)c2cc(C3CCC3)cnc2n(CCN2CCOCC2)c1=O measurement_type=IC50 result="> 1000 nM"
compound=O=C(NC12CC(C1)C2)c1c(O)c2cc(-c3ccc(F)cc3)cnc2n(CCN2C3COCC2C3)c1=O measurement_type=IC50 result="> 1000 nM"
compound=O=C(NC1CC2(CCC2)C1)c1cc2cc(-c3ncccn3)cnc2n(CCN2CCOCC2)c1=O measurement_type=IC50 result="< 100 nM"
compound=O=C(NC12CC(C1)C2)c1cc2cc(C3CC3)cnc2n(Cc2ccc(F)cc2)c1=O measurement_type=IC50 result="< 100 nM"
compound=Cc1c(C(=O)NC2CC3(CCC3)C2)c(=O)n(Cc2ccc(F)cc2)c2ncc(Br)cc12 measurement_type=IC50 result="< 100 nM"
compound="COc1ccc(-c2cnc3c(c2)c(C)c(C(=O)NC(C)c2ccc(F)cc2)c(=O)n3CCN2CCOCC2)cc1 (stereo not shown)" measurement_type=IC50 result="> 1000 nM"
compound=O=C(NC1CC2(CCC2)C1)c1cc2cc(-c3ccc(F)cc3)cnc2n(Cc2cccnc2)c1=O measurement_type=IC50 result="< 100 nM"
compound=O=C(NC1CC2(CCC2)C1)c1cc2cc(-c3ccc(OC4CC4)cc3)cnc2n(Cc2ccc(F)cc2)c1=O measurement_type=IC50 result="> 1000 nM"
compound=O=C(NC12CC(C1)C2)c1cc2cc(-c3ccc(OC(F)F)cc3)cnc2n(CCN2CCOCC2)c1=O measurement_type=IC50 result="< 100 nM"
compound=O=C(NC1CC2(CCC2)C1)c1c(O)c2cc(-c3ccc(OC(F)F)cn3)cnc2n(CCN2CCOCC2)c1=O measurement_type=IC50 result="> 1000 nM"
compound=O=C(NC1CCC(F)(F)CC1)c1c(O)c2cc(-c3ccc(F)cc3)cnc2n(CCN2CCOCC2)c1=O measurement_type=IC50 result="> 1000 nM"
compound=C[C@H]1CC[C@@H](NC(=O)c2c(O)c3cc(-c4ccc(OC(F)F)cc4)ccc3n(CCN3CCOCC3)c2=O)CC1 measurement_type=IC50 result="< 100 nM"
compound=O=C(NC12CC(C1)C2)c1c(O)c2cc(-c3ccc(OC(F)F)cc3)cnc2n(CCN2CCOCC2)c1=O measurement_type=IC50 result="> 1000 nM"
compound=C[C@H](NC(=O)c1cc2cc(-c3ccc(OC(F)F)cn3)cnc2n(CCN2CCOCC2)c1=O)c1ccc(F)cc1 measurement_type=IC50 result="100 to 999 nM"
compound="CC(NC(=O)c1cc2cc(Br)cnc2n(Cc2ncccn2)c1=O)c1ccc(F)cc1 (stereo not shown)" measurement_type=IC50 result="> 1000 nM"
